Target: Bcl-2 protein (Homo sapiens (Human))
Assay: Inhibition of Bcl-2 by the fluorescence polarisation technique
Assay type: binding
Details: fluorescence polarisation test; concentration that inhibits fluorescence polarisation by 50%; read-out: IC50 (nM) Bcl-2 FP
Where a name gives a salt, the structure may show the parent alone.
measuredAttribute: IC50 (nM)

* Cn1ccc2cc(N(C(=O)c3cc(-c4cc(Cl)ccc4C(=O)N4Cc5ccccc5C[C@H]4CN4CCOCC4)n4ccccc34)c3ccc(O)cc3)ccc21 [Example 67, hydrochloride] | 24

I: CN1CCN(C[C@@H]2Cc3ccccc3CN2C(=O)c2cc3c(cc2-c2cc(C(=O)N(c4ccccc4)c4ccc(O)cc4)c4n2CCCC4)OCO3)CC1=O [Example 128, hydrochloride]
II: Cl.O=C(c1cc(-c2cc3c(cc2C(=O)N2Cc4ccccc4C[C@H]2CN2CCOCC2)OCO3)n2c1CCCC2)N(c1ccc(O)cc1)c1cccc(F)c1 [Example 122, hydrochloride]
Could you tell me which of I and II has the lower IC50 reading? Field: selected label. Fill in the label of the entry you choose.
I

###

Measured IC50 accompanies every entry in the list below.
Target: UniProt P10415
Assay: Inhibition of Bcl-2 by the fluorescence polarisation technique
Assay type: binding
Details: read-out: IC50 (nM) Bcl-2 FP
Where a name gives a salt, the structure may show the parent alone.
The reply should contain only the number, in nM.

- C[C@H]1COCCN1C[C@@H]1Cc2ccccc2CN1C(=O)c1cc2c(cc1-c1cc(C(=O)N(c3ccc(O)cc3)c3ccc4c(ccn4C)c3)c3n1CCCC3)OCO2 [Example 16, hydrochloride]: 18

IC50 lookup needed for C[C@@H]1COCCN1C[C@@H]1Cc2ccccc2CN1C(=O)c1cc2c(cc1-c1cc(C(=O)N(c3ccc(O)cc3)c3ccc4c(ccn4C)c3)c3n1CCCC3)OCO2 [Example 15, hydrochloride] , thanks.
17

###

Molecular target: Bcl-2 protein (Homo sapiens (Human), UniProt P10415)
Sequence (P10415 whole entry): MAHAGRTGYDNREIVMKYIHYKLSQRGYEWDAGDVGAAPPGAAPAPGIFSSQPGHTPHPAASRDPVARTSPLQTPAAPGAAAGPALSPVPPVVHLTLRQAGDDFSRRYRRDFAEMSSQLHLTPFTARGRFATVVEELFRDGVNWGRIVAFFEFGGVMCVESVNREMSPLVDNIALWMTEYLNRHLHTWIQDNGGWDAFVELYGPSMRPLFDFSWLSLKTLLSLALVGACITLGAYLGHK
Experiment: Inhibition of Bcl-2 by the fluorescence polarisation technique
Type: binding
Conditions: fluorescence polarisation test; concentration that inhibits fluorescence polarisation by 50%; read-out: IC50 (nM) Bcl-2 FP
Structures can show the parent of a compound that is named as a salt.
measuredAttribute: IC50 (nM)

Completed entries (count: 2):
- Cc1ccc(N(C(=O)c2cc(-c3cc4c(cc3C(=O)N3Cc5ccccc5C[C@H]3CN3CCOCC3)OCO4)n3c2COCC3)c2ccc(O)cc2)cc1F [Example 92, hydrochloride]: 5
- O=C(c1cc(-c2cc(Cl)ccc2C(=O)N2Cc3ccccc3C[C@H]2CN2CCOCC2)n2c1CCCC2)N(c1ccc(O)cc1)c1cccc(F)c1 [Example 116, hydrochloride]: 10

I: CN1CCN(C[C@@H]2Cc3ccccc3CN2C(=O)c2ccc(Cl)cc2-c2cc(C(=O)N(c3ccc(O)cc3)c3ccc4c(ccn4C)c3)c3n2CCCC3)CC1 [Example 30, bis(hydrochloride)]
II: Cn1ccc2cc(N(C(=O)c3cc(-c4cc5c(cc4C(=O)N4Cc6ccccc6C[C@H]4CN4CCOCC4)OCO5)n4c3CNCC4)c3ccc(O)cc3)ccc21 [Example 74, bis(hydrochloride)]
III: Cl.Cn1cc(N(C(=O)c2cc(-c3cc(Cl)ccc3C(=O)N3Cc4ccccc4C[C@H]3CN3CCOCC3)n3c2CCCC3)c2ccc(O)cc2)cn1 [Example 135, hydrochloride]
Order these by IC50, descending, and give the full ranking. Sort and list the labels as requested.
II, I, III
(II: 24 nM, I: 13 nM, III: 6 nM)

###

Measured IC50 accompanies every entry in the list below.
Test system: RS4;11 leukaemia tumour line
Test: In vitro cytotoxicity (Microculture Tetrazolium Assay, 48 hours)
Assay type: cell-based
Conditions: RS4;11 cells, 48 hours exposure, MTT, concentration that inhibits cell viability by 50%, read-out: IC50 (nM) MTT RS4
Description: The cytotoxicity studies were carried out on the RS4;11 leukaemia tumour line. The cells are distributed onto microplates and exposed to the test compounds for 48 hours.
Where a name gives a salt, the structure may show the parent alone.
The reply should contain only the number, in nM.

Completed entries (count: 5):
- C[C@H]1COCCN1C[C@@H]1Cc2ccccc2CN1C(=O)c1cc2c(cc1-c1cc(C(=O)N(c3ccc(O)cc3)c3ccc4c(ccn4C)c3)c3n1CCCC3)OCO2 [Example 16, hydrochloride]: 23.4
- CCOc1ccc(C(=O)N2Cc3ccccc3C[C@H]2CN2CCOCC2)c(-c2cc(C(=O)N(c3ccc(O)cc3)c3ccc4c(ccn4C)c3)c3n2CCCC3)c1 [Example 36, hydrochloride]: 135
- Cl.O=C(c1cc(-c2cc3c(cc2C(=O)N2Cc4ccccc4C[C@H]2CN2CCOCC2)OCO3)n2ccccc12)N(c1ccccc1)c1ccc(O)cc1 [Example 58, hydrochloride]: 40.1
- Cl.O=C(c1cc(-c2cc3c(cc2C(=O)N2Cc4ccccc4C[C@H]2CN2CCOCC2)OCO3)n2c1CCCC2)N(c1ccc(O)cc1)c1ccc(Cl)cc1 [Example 3, hydrochloride]: 44.7
- C[C@H]1COC[C@H](C)N1C[C@@H]1Cc2ccccc2CN1C(=O)c1cc2c(cc1-c1cc(C(=O)N(c3ccc(O)cc3)c3ccc4c(ccn4C)c3)c3n1CCCC3)OCO2 [Example 17, hydrochloride]: 120

Now consider the entry below.
IC50 lookup needed for C[C@@H]1COCCN1C[C@@H]1Cc2ccccc2CN1C(=O)c1cc2c(cc1-c1cc(C(=O)N(c3ccc(O)cc3)c3ccc4c(ccn4C)c3)c3n1CCCC3)OCO2 [Example 15, hydrochloride] , thanks.
20.4

###

Biological target: Bcl-2 protein (Homo sapiens (Human), UniProt P10415)
Experiment: Inhibition of Bcl-2 by the fluorescence polarisation technique
Type: binding
Conditions: fluorescence polarisation test; concentration that inhibits fluorescence polarisation by 50%; read-out: IC50 (nM) Bcl-2 FP
Structures can show the parent of a compound that is named as a salt.
measuredAttribute: IC50 (nM)

• O=C(c1cc(-c2cc3c(cc2C(=O)N2Cc4ccccc4C[C@H]2CN2CCOCC2)OCCCO3)n2c1CCCC2)N(c1ccccc1)c1ccc(O)cc1 [Example 31, hydrochloride] = 33

a: CCN(CCOC)C[C@@H]1Cc2ccccc2CN1C(=O)c1ccc(Cl)cc1-c1cc(C(=O)N(c2ccc(O)cc2)c2ccc3c(ccn3C)c2)c2n1CCCC2 [Example 110, hydrochloride]
b: CN1CCN(C[C@@H]2Cc3ccccc3CN2C(=O)c2cc3c(cc2-c2cc(C(=O)N(c4ccc(O)cc4)c4ccc5c(ccn5C)c4)c4n2CCCC4)OCO3)CC1 [Example 13, bis(hydrochloride)]
c: CN1CC(C)(C)c2cc(N(C(=O)c3cc(-c4cc(Cl)ccc4C(=O)N4Cc5ccccc5C[C@H]4CN4CCOCC4)n4c3CCCC4)c3ccc(O)cc3)ccc21
Order these by IC50, descending, and give the full ranking. Sort and list the labels as requested.
c, a, b
(c: 45 nM, a: 29 nM, b: 12 nM)

a: Cc1cccc(N(C(=O)c2cc(-c3cc(Cl)ccc3C(=O)N3Cc4ccccc4C[C@H]3CN3CCOCC3)n3c2CCCC3)c2ccc(O)cc2)c1 [Example 126, hydrochloride]
b: O=C(c1cc(-c2cc(Cl)ccc2C(=O)N2Cc3ccccc3C[C@H]2CN2CCOCC2)n2c1CCCC2)N(c1ccc(O)cc1)c1ccc(F)cc1 [Example 111, hydrochloride]
Could you tell me which of a and b has the lower IC50 reading? Field: selected label. Fill in the label of the entry you choose.
b
(b: 15 nM, a: 26 nM)

###

Molecular target: Bcl-2 protein (Homo sapiens (Human))
Experiment: Inhibition of Bcl-2 by the fluorescence polarisation technique
Format: binding
Conditions: fluorescence polarisation test; concentration that inhibits fluorescence polarisation by 50%; read-out: IC50 (nM) Bcl-2 FP
Where a name gives a salt, the structure may show the parent alone.
measuredAttribute: IC50 (nM)

Completed entries (count: 2):
• Cn1ccc2cc(N(C(=O)c3cc(-c4cc(Br)ccc4C(=O)N4Cc5ccccc5C[C@H]4CN4CCOCC4)n4c3CCCC4)c3ccc(O)cc3)ccc21 [Example 18, hydrochloride] = 32
• COc1ccc(C(=O)N2Cc3ccccc3C[C@H]2CN2CCOCC2)c(-c2cc(C(=O)N(c3ccc(O)cc3)c3ccc4c(ccn4C)c3)c3ccccn23)c1 [Example 71, hydrochloride] = 21

a: COc1ccc(C(=O)N2Cc3ccccc3C[C@H]2CN2CCOCC2)c(-c2cc(C(=O)N(c3ccc(O)cc3)c3ccc4c(cnn4C)c3)c3n2CCCC3)c1 [Example 104, hydrochloride]
b: CN1CCCc2cc(N(C(=O)c3cc(-c4cc5c(cc4C(=O)N4Cc6ccccc6C[C@H]4CN4CCOCC4)OCCO5)n4ccccc34)c3ccc(O)cc3)ccc21 [Example 69, hydrochloride]
c: CN1CCN(C[C@@H]2Cc3ccccc3CN2C(=O)c2ccc(Cl)cc2-c2cc(C(=O)N(c3ccc(O)cc3)c3ccc4c(ccn4C)c3)c3ccccn23)CC1 [Example 65, bis(hydrochloride)]
Hi! Can you put these in order of IC50, lowest number first? Sort and list the labels as requested.
a, c, b
